ASSAYED_SYSTEM: UniProtKB O15296
ASSAY_SUMMARY: 15-LOX inhibition assay (human recombinant enzyme kit)
SETUP_CONDITIONS: in vitro, human recombinant enzyme
PROPERTY_NAME: IC50 (µM)
One number for each entry, in µM.

Requested field: IC50. Item: CCCCC/C=C\C/C=C\C/C=C\C/C=C\CCCCOCC(O)CO[C@H]1O[C@H](CO)[C@@H](O)[C@H](O)[C@H]1O (stereo partly shown) [compound 19]
6.7

* * *

ASSAYED_SYSTEM: UniProt O15296
Sequence (O15296 1-676): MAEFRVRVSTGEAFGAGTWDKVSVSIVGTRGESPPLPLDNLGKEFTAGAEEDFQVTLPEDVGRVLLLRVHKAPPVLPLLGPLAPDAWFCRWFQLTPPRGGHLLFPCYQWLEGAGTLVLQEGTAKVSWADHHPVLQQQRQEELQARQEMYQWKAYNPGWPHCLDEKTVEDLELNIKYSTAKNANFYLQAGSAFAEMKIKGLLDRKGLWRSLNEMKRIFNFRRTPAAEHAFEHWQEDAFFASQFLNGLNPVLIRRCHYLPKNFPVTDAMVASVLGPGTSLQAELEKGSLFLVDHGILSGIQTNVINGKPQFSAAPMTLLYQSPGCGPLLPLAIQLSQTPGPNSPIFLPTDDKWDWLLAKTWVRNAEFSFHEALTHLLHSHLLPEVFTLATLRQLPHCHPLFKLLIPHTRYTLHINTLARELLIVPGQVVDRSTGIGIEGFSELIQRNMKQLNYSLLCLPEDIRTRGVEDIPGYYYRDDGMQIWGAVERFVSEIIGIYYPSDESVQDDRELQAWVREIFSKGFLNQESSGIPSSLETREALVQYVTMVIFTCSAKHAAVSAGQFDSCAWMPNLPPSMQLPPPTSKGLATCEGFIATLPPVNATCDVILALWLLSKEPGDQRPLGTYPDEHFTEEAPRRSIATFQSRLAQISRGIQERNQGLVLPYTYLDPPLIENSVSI
ASSAY_SUMMARY: 15-LOX inhibition assay (human recombinant enzyme kit)
SETUP_CONDITIONS: in vitro inhibition constant
PROPERTY_NAME: Ki (µM)
Give bare numbers, in µM.

Requested field: Ki. Item: CCCCC/C=C\C/C=C\C/C=C\C/C=C\CCCCOCC(O)CO[C@H]1O[C@H](CO)[C@@H](O)[C@H](O)[C@H]1O (stereo partly shown)
4.2

* * *

ASSAYED_SYSTEM: 5-LOX (Homo sapiens, UniProt P09917)
ASSAY_SUMMARY: 5-LOX inhibition assay (human recombinant enzyme kit)
SETUP_CONDITIONS: in vitro inhibition constant
PROPERTY_NAME: pKi
Give bare numbers, as −log10 of the molar value.

Requested field: pKi. Item: CCCCC/C=C\C/C=C\C/C=C\C/C=C\CCCCOCC(O)CO[C@H]1O[C@H](CO)[C@@H](O)[C@H](O)[C@H]1O (stereo partly shown) [compound 19]
5.85

* * *

ASSAYED_SYSTEM: 5-LOX (Homo sapiens, UniProt P09917)
Sequence (P09917 1-674): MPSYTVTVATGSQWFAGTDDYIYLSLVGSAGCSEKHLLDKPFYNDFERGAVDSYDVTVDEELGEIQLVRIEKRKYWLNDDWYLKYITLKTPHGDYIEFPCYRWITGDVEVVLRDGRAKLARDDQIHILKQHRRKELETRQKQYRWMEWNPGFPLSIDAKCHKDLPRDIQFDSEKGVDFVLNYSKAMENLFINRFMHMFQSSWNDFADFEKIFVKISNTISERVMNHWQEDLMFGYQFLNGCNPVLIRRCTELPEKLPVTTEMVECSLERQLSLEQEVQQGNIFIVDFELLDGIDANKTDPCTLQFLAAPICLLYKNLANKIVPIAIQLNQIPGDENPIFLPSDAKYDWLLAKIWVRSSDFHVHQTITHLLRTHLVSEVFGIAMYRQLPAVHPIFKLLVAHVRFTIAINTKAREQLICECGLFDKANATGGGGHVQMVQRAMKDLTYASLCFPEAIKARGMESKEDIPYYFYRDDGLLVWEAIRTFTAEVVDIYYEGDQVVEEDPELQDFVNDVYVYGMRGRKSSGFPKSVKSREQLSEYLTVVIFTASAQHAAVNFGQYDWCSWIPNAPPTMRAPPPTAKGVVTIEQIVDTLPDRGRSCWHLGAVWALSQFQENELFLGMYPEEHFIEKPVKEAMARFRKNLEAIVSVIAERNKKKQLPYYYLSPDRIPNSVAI
ASSAY_SUMMARY: 5-LOX inhibition assay (human recombinant enzyme kit)
SETUP_CONDITIONS: in vitro, human recombinant enzyme
PROPERTY_NAME: IC50
Answer with the number, then the unit.

Requested field: IC50. Item: CCCCC/C=C\C/C=C\C/C=C\C/C=C\CCCCOCC(O)CO[C@H]1O[C@H](CO)[C@@H](O)[C@H](O)[C@H]1O (stereo partly shown)
2100 nM
